Target: human GR (Homo sapiens)
Construct: naturally expresses the human GR; endogenous in cells
Assay: Transrepression Assay (GITAR), TNFα-β-lactamase reporter in U937 cells
Type: cell-based
Conditions: inflection point (IP), TNFα promoter β-lactamase reporter, PMA/LPS
pEC50: −log10 of the molar value.
MEASURE: pEC50

- COMPOUND: "C[C@]12Cc3cnn(-c4ccccc4)c3C=C1CC[C@@]2(CO)CC(O)c1ccccn1 (single isomer, unassigned) [Example 23a]"
  REPORTED_MEASUREMENT: 7.64

I: C[C@]12Cc3cnn(-c4ccc(F)cc4)c3C=C1CC[C@@]2(CO)CC(O)c1cc(F)cc(Cl)c1 (single isomer, unassigned) [Example 6b]
II: COc1ccc(C(O)C[C@]2(CO)CCC3=Cc4c(cnn4-c4ccc(F)cc4)C[C@@]32C)nc1 (single isomer, unassigned) [Example 24a]
Q: // which entry reports the smaller pEC50, I or II ? Please identify the chosen entry by its label.
A: II

---

Target: human GR (Homo sapiens, UniProt P04150)
Construct: naturally expresses the human GR; endogenous in cells
Test: Transrepression Assay (GITAR), TNFα-β-lactamase reporter in U937 cells
Type: cell-based
Details: inflection point (IP), TNFα promoter β-lactamase reporter, PMA/LPS
MEASURE: EC50 (µM)

- COMPOUND: "C[C@]12Cc3cnn(-c4ccc(F)cc4)c3C=C1CC[C@@]2(CO)CC(O)c1ccncc1 (single isomer, unassigned) [Example 17a]"
  SYSTEM_NAME: "human GR (Homo sapiens, UniProt P04150)"
  VALUE_UNIT: "µM"
  EC50: 0.0753
- COMPOUND: "C[C@]12Cc3cnn(-c4ccc(F)cc4)c3C=C1CC[C@@]2(CO)CC(O)C(F)(F)F (single isomer, unassigned) [Example 28b]"
  SYSTEM_NAME: "human GR (Homo sapiens, UniProt P04150)"
  VALUE_UNIT: "µM"
  EC50: 0.0909
- COMPOUND: "Cc1cccc(C(O)C[C@]2(CO)CCC3=Cc4c(cnn4-c4ccc(F)cc4)C[C@@]32C)c1 (single isomer, unassigned) [Example 5a]"
  SYSTEM_NAME: "human GR (Homo sapiens, UniProt P04150)"
  VALUE_UNIT: "µM"
  EC50: 0.0861
- COMPOUND: "C[C@]12Cc3cnn(-c4ccc(F)cc4)c3C=C1CC[C@@]2(CO)CC1OC(=O)c2ccccc21 (single isomer, unassigned) [Example 12a]"
  SYSTEM_NAME: "human GR (Homo sapiens, UniProt P04150)"
  VALUE_UNIT: "µM"
  EC50: 0.0931
- COMPOUND: "COc1cccnc1C(O)C[C@]1(CO)CCC2=Cc3c(cnn3-c3ccc(F)cc3)C[C@@]21C (single isomer, unassigned) [Example 21a]"
  SYSTEM_NAME: "human GR (Homo sapiens, UniProt P04150)"
  VALUE_UNIT: "µM"
  EC50: 0.101

---

Biological target: human GR (Homo sapiens)
Construct: naturally expresses the human GR; endogenous in cells
Sequence (P04150 1-777): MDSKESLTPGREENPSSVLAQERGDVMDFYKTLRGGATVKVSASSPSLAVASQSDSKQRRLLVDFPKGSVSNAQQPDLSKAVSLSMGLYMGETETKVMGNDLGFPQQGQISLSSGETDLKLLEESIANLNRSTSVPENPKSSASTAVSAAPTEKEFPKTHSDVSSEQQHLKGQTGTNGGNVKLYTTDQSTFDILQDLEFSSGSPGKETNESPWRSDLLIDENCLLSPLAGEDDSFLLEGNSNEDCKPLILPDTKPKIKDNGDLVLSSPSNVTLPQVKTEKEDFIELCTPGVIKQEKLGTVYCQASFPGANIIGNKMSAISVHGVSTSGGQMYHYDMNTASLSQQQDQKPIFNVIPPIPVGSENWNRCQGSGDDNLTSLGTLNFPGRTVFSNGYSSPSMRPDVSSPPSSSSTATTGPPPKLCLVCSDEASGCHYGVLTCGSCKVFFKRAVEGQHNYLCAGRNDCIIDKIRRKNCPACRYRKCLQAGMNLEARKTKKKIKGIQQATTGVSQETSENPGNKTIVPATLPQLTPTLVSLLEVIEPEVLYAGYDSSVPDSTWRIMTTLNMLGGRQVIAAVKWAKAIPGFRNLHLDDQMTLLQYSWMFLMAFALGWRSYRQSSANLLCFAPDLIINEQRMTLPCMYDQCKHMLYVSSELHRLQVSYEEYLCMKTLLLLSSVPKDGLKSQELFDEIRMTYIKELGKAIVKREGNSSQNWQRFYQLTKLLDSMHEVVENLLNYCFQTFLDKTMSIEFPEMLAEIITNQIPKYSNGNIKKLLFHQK
Experiment: Transrepression Assay (GITAR), TNFα-β-lactamase reporter in U937 cells
Type: cell-based
Conditions: activity repressed by 100 nM dexamethasone set as 100%
MEASURE: Transrepression U937 Cells GITAR Emax (%)

- MOLECULE: "C[C@]12Cc3cnn(-c4ccc(F)cc4)c3C=C1CC[C@@]2(CO)CC1OC(=O)c2ccccc21 (single isomer, unassigned) [Example 12b]"
  VALUE_UNIT: "%"
  REPORTED_MEASUREMENT: 93.0
- MOLECULE: "C[C@]12Cc3cnn(-c4cccc(F)c4)c3C=C1CC[C@@]2(CO)CC(O)c1cccnc1 (single isomer, unassigned) [Example 27b]"
  VALUE_UNIT: "%"
  REPORTED_MEASUREMENT: 71.9

a: C[C@]12Cc3cnn(-c4ccc(F)cc4)c3C=C1CC[C@@]2(CO)CC(O)c1ccncc1 (single isomer, unassigned) [Example 17b]
b: COc1ccc(C(O)C[C@]2(CO)CCC3=Cc4c(cnn4-c4ccc(F)cc4)C[C@@]32C)nc1 (single isomer, unassigned) [Example 24b]
Q: Which numeric Transrepression U937 Cells GITAR Emax (%) is bigger, that of a or that of b ? Select an item and report its label.
A: a
(a: 83.3%, b: 57.9%)

I: C[C@]12Cc3cnn(-c4ccc(F)cc4)c3C=C1CC[C@@]2(CO)CC(O)c1ccc(F)cn1 (single isomer, unassigned) [Example 22b]
II: C[C@]12Cc3cnn(-c4ccccc4)c3C=C1CC[C@@]2(CO)CC(O)c1cccnc1 (single isomer, unassigned) [Example 29b]
Q: I'm curious whether I or II has the smaller Transrepression U937 Cells GITAR Emax (%) number. Which is it? Field: selected label. Fill in the label of the entry you choose.
A: II
